Below: a set of entries, each annotated with reported viability, T/C.
Test system: K12877-001-R-J1-PDC complex spheroid viability
PROTOCOL_NOTES: Anticancer human tumor K12877-001-R-J1-PDC patient-derived lung adenocarcinoma cell line growth inhibition [RAS]
MEASUREMENT_SETUP: second compound 0.0949 µM; first compound 0.0316 µM; stronger effect = lower value
ASSAY_READOUT: viability, T/C (%)

INSERT INTO measurements (compound, unit_text, value_observed) VALUES
  ('CCC(CC)c1cc(NC2CCC(N)C2)n2nccc2n1 (stereo not drawn) + CCn1c(-c2cccnc2C(C)OC)c2c3cc(ccc31)N1CCOC(CC(NC(=O)C(C(C)C)N(C)C(=O)C3(F)CCN(C(=O)C#CC(C)(C)N(C)C)CC3)C(=O)N3CCCC(N3)C(=O)OCC(C)(C)C2)C1', '%', 83.6),
  ('C[C@@H](NC(=O)c1ncnc(N)c1Cl)c1ncc(C(=O)Nc2cc(C(F)(F)F)c(Cl)cn2)s1 + CCn1c(-c2cccnc2C(C)OC)c2c3cc(ccc31)N1CCOC(CC(NC(=O)C(C(C)C)N(C)C(=O)C3(F)CCN(C(=O)C#CC(C)(C)N(C)C)CC3)C(=O)N3CCCC(N3)C(=O)OCC(C)(C)C2)C1', '%', 79.5),
  ('CC1(O)CCCC1n1c(=O)c(C(F)F)cc2cnc(NC3CCN(S(C)(=O)=O)CC3)nc21 (stereo not drawn) + CCn1c(-c2cc(N3CCN(C)CC3)cnc2C(C)OC)c2c3cc(ccc31)-c1csc(n1)CC(NC(=O)C1CC1C)C(=O)N1CCCC(N1)C(=O)OCC(C)(C)C2', '%', 92),
  ('NC1c2ccccc2OC12CCN(c1cnc3c(N4CCCc5ncccc54)n[nH]c3n1)CC2 (stereo not drawn) + CCn1c(-c2cccnc2C(C)OC)c2c3cc(ccc31)N1CCOC(CC(NC(=O)C(C(C)C)N(C)C(=O)C3(F)CCN(C(=O)C#CC(C)(C)N(C)C)CC3)C(=O)N3CCCC(N3)C(=O)OCC(C)(C)C2)C1', '%', 62.4),
  ('CC(C)n1nc(-c2ccc3oc(N)nc3c2)c2c(N)ncnc21 + CCn1c(-c2cc(N3CCN(C)CC3)cnc2C(C)OC)c2c3cc(ccc31)-c1csc(n1)CC(NC(=O)C1CC1C)C(=O)N1CCCC(N1)C(=O)OCC(C)(C)C2', '%', 22.3),
  ('CC(C)n1nc(-c2ccc3oc(N)nc3c2)c2c(N)ncnc21 + CCn1c(-c2cccnc2C(C)OC)c2c3cc(ccc31)N1CCOC(CC(NC(=O)C(C(C)C)N(C)C(=O)C3(F)CCN(C(=O)C#CC(C)(C)N(C)C)CC3)C(=O)N3CCCC(N3)C(=O)OCC(C)(C)C2)C1', '%', 12.2),
  ('CC(=O)OC12COC1CC(O)C1(C)C(=O)C(O)C3=C(C)C(OC(=O)C(O)C(NC(=O)OC(C)(C)C)c4ccccc4)CC(O)(C(OC(=O)c4ccccc4)C21)C3(C)C (stereo not drawn) + CCn1c(-c2cc(N3CCN(C)CC3)cnc2C(C)OC)c2c3cc(ccc31)-c1csc(n1)CC(NC(=O)C1CC1C)C(=O)N1CCCC(N1)C(=O)OCC(C)(C)C2', '%', 4.19),
  ('CC(C)NCC(C(=O)N1CCN(c2ncnc3c2C(C)CC3O)CC1)c1ccc(Cl)cc1 (stereo not drawn) + CCn1c(-c2cc(N3CCN(C)CC3)cnc2C(C)OC)c2c3cc(ccc31)-c1csc(n1)CC(NC(=O)C1CC1C)C(=O)N1CCCC(N1)C(=O)OCC(C)(C)C2', '%', 106),
  ('C[C@@H](NC(=O)c1ncnc(N)c1Cl)c1ncc(C(=O)Nc2cc(C(F)(F)F)c(Cl)cn2)s1 + CCn1c(-c2cc(N3CCN(C)CC3)cnc2C(C)OC)c2c3cc(ccc31)-c1csc(n1)CC(NC(=O)C1CC1C)C(=O)N1CCCC(N1)C(=O)OCC(C)(C)C2', '%', 101),
  ('O=C(c1ccc(F)c(F)c1Nc1ccc(I)cc1F)N1CC(O)([C@@H]2CCCCN2)C1 + CCn1c(-c2cccnc2C(C)OC)c2c3cc(ccc31)N1CCOC(CC(NC(=O)C(C(C)C)N(C)C(=O)C3(F)CCN(C(=O)C#CC(C)(C)N(C)C)CC3)C(=O)N3CCCC(N3)C(=O)OCC(C)(C)C2)C1', '%', 69.5),
  ('CCC(CC)c1cc(NC2CCC(N)C2)n2nccc2n1 (stereo not drawn) + CCn1c(-c2cc(N3CCN(C)CC3)cnc2C(C)OC)c2c3cc(ccc31)-c1csc(n1)CC(NC(=O)C1CC1C)C(=O)N1CCCC(N1)C(=O)OCC(C)(C)C2', '%', 119),
  ('C=CC(=O)N1CCN(c2nc(OCC3CCCN3C)nc3c(F)c(-c4nc(N)cc(C)c4C(F)(F)F)c(Cl)cc23)C(C)C1 (stereo not drawn) + CCn1c(-c2cccnc2C(C)OC)c2c3cc(ccc31)N1CCOC(CC(NC(=O)C(C(C)C)N(C)C(=O)C3(F)CCN(C(=O)C#CC(C)(C)N(C)C)CC3)C(=O)N3CCCC(N3)C(=O)OCC(C)(C)C2)C1', '%', 79.7),
  ('Nc1ccn(C2OC(CO)C(O)C2(F)F)c(=O)n1 (stereo not drawn) + CCn1c(-c2cccnc2C(C)OC)c2c3cc(ccc31)N1CCOC(CC(NC(=O)C(C(C)C)N(C)C(=O)C3(F)CCN(C(=O)C#CC(C)(C)N(C)C)CC3)C(=O)N3CCCC(N3)C(=O)OCC(C)(C)C2)C1', '%', 5.2);

---

System: K12877-001-R-J1-PDC complex spheroid viability
PROTOCOL_NOTES: Anticancer human tumor K12877-001-R-J1-PDC cell line growth inhibition [RAS];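 also: tumour cells co-cultured with HUVEC and mesenchymal stem cells in spheroids; spheroids exposed to agents for one week before readout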
MEASUREMENT_SETUP: second compound 0.316 µM; first compound 0.00949 µM; stronger effect = lower value
Description: RAS pathway inhibitors in Combinations in Complex Spheroids A high-throughput screen of multi-cell type tumor spheroids was designed to identify active combinations of RAS pathway inhibitors and targeted small molecules. Complex spheroids include a stromal component modeled by human endothelial cells (HUVEC) and fibroblasts modeled by human mesenchymal stem cells (MSCs). […] Compounds. […] If the clinical Cmax for an agent had not been determined, the highest concentration tested was 10 microM. […]
ASSAY_READOUT: viability, T/C (%)

INSERT INTO assay_data (compound, unit_text, value_observed) VALUES
  ('CC1(C)CCC(Nc2ncc(C(F)(F)F)c(-c3c[nH]c4c(P(C)(C)=O)c(C#N)ccc34)n2)CN1 (centres undefined) + C#Cc1c(F)ccc2cc(O)cc(-c3ncc4c(N5CC6CCC(C5)N6)nc(OCC56CCCN5CC(F)C6)nc4c3F)c12', '%', 87),
  ('CCc1c2c(nc3ccc(O)cc13)-c1cc3c(c(=O)n1C2)COC(=O)[C@]3(O)CC + C#Cc1c(F)ccc2cc(O)cc(-c3ncc4c(N5CC6CCC(C5)N6)nc(OCC56CCCN5CC(F)C6)nc4c3F)c12', '%', 11.5),
  ('CCc1c2c(nc3ccc(O)cc13)-c1cc3c(c(=O)n1C2)COC(=O)[C@]3(O)CC + C=CC(=O)N1CCN(c2nc(OCC3CCCN3C)nc3c(F)c(-c4nc(N)cc(C)c4C(F)(F)F)c(Cl)cc23)C(C)C1', '%', 7.81),
  ('CC1(C)CCC(Nc2ncc(C(F)(F)F)c(-c3c[nH]c4c(P(C)(C)=O)c(C#N)ccc34)n2)CN1 (centres undefined) + C=CC(=O)N1CCN(c2nc(OCC3CCCN3C)nc3c(F)c(-c4nc(N)cc(C)c4C(F)(F)F)c(Cl)cc23)C(C)C1', '%', 66.2);

---

Below: a set of entries, each annotated with reported viability, T/C.
Tested on: K12877-001-R-J1-PDC complex spheroid viability
PROTOCOL_NOTES: Anticancer human tumor K12877-001-R-J1-PDC cell line growth inhibition [RAS];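 also: tumour cells co-cultured with HUVEC and mesenchymal stem cells in spheroids; spheroids exposed to agents for one week before readout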
MEASUREMENT_SETUP: second compound 0.3 µM; first compound 0.000949 µM; stronger effect = lower value
ASSAY_READOUT: viability, T/C

INSERT INTO results (molecule, assay_readout, value_observed) VALUES
  ('CCc1c2c(nc3ccc(O)cc13)-c1cc3c(c(=O)n1C2)COC(=O)[C@]3(O)CC + CCn1c(-c2cccnc2C(C)OC)c2c3cc(ccc31)N1CCOC(CC(NC(=O)C(C(C)C)N(C)C(=O)C3(F)CCN(C(=O)C#CC(C)(C)N(C)C)CC3)C(=O)N3CCCC(N3)C(=O)OCC(C)(C)C2)C1', 'viability, T/C', '62.8%'),
  ('CC1(C)CCC(Nc2ncc(C(F)(F)F)c(-c3c[nH]c4c(P(C)(C)=O)c(C#N)ccc34)n2)CN1 (centres undefined) + CCn1c(-c2cc(N3CCN(C)CC3)cnc2C(C)OC)c2c3cc(ccc31)-c1csc(n1)CC(NC(=O)C1CC1C)C(=O)N1CCCC(N1)C(=O)OCC(C)(C)C2', 'viability, T/C', '97.8%'),
  ('CC1(C)CCC(Nc2ncc(C(F)(F)F)c(-c3c[nH]c4c(P(C)(C)=O)c(C#N)ccc34)n2)CN1 (centres undefined) + CCn1c(-c2cccnc2C(C)OC)c2c3cc(ccc31)N1CCOC(CC(NC(=O)C(C(C)C)N(C)C(=O)C3(F)CCN(C(=O)C#CC(C)(C)N(C)C)CC3)C(=O)N3CCCC(N3)C(=O)OCC(C)(C)C2)C1', 'viability, T/C', '69.1%'),
  ('CCc1c2c(nc3ccc(O)cc13)-c1cc3c(c(=O)n1C2)COC(=O)[C@]3(O)CC + CCn1c(-c2cc(N3CCN(C)CC3)cnc2C(C)OC)c2c3cc(ccc31)-c1csc(n1)CC(NC(=O)C1CC1C)C(=O)N1CCCC(N1)C(=O)OCC(C)(C)C2', 'viability, T/C', '85.1%');

Source: PubChem BioAssay AID2060894
